# Assayed System: α-amylase (Sus scrofa)
# Construct: α-amylase from porcine pancreas (A3176)
# Test: Combination analysis of α-amylase inhibition (CompuSyn: median-effect, isobologram, CI, DRI)
Reported Endpoint: IC50 (mM)
Enter your answer as a number in mM; do not include the unit.

Entry O=c1c(O)c(-c2ccc(O)cc2)oc2cc(O)cc(O)c12 [Kaempferol] needs its IC50 filled in; supply it.
4.84

---

# Assayed System: α-amylase from porcine pancreas (Sus scrofa)
Kindly apply the following: condition met if IC50 is less than 5 mM, condition not met in every other case.

// below: answered compounds
O=c1c(O)c(-c2ccc(O)cc2)oc2cc(O)cc(O)c12    condition met
O=c1cc(-c2ccc(O)c(O)c2)oc2cc(O)cc(O)c12    condition not met

Consider now this further compound.
Given OCC1=C[C@@H](O)[C@@H]2C=CO[C@@H](O[C@@H]3O[C@H](CO)[C@@H](O)[C@H](O)[C@H]3O)[C@H]12 , is recorded IC50 strictly lower than 5 mM?
condition met

---

# Assayed System: UniProt:P00690
# Sequence (P00690 16-511): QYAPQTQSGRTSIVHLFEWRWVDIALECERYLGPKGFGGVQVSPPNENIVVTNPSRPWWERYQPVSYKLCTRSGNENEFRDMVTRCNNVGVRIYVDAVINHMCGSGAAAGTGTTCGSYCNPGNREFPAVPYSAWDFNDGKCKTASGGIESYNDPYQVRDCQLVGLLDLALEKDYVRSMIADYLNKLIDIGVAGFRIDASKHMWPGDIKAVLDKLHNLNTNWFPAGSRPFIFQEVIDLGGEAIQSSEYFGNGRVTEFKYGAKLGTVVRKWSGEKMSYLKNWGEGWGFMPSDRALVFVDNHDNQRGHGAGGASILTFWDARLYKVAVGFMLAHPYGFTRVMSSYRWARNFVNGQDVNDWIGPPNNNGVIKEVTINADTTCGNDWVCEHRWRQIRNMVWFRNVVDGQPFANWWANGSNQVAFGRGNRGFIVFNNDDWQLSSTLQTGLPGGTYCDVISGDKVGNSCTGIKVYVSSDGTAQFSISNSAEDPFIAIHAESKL
Recorded measurements of IC50, one per entry
Lab book: enter the figure in mM, no units written.

O=C(/C=C/c1ccc(O)c(O)c1)O[C@H](Cc1ccc(O)c(O)c1)C(=O)O [Rosmarinic Acid, rosmarinic acid]    7

Identify IC50 associated with the molecule COc1c(-c2ccc(O)c(O)c2)oc2cc(O)cc(O)c2c1=O [Quercetin-3-methylether, quercetin-3-methyl ether]
6.37

Complete the entry with IC50 for Oc1cc(O)c2c(c1)OC(c1ccc(O)c(O)c1)C(O)C2 (stereo not shown) [Catechin]
5.04

Entry O=C(/C=C/c1ccc(O)c(O)c1)O[C@@H]1C[C@](O)(C(=O)O)C[C@@H](O)[C@H]1O [Chlorogenic Acid, chlorogenic acid] needs its IC50 filled in; supply it.
7.39
